Target: UniProt O60674
Sequence (O60674 whole entry): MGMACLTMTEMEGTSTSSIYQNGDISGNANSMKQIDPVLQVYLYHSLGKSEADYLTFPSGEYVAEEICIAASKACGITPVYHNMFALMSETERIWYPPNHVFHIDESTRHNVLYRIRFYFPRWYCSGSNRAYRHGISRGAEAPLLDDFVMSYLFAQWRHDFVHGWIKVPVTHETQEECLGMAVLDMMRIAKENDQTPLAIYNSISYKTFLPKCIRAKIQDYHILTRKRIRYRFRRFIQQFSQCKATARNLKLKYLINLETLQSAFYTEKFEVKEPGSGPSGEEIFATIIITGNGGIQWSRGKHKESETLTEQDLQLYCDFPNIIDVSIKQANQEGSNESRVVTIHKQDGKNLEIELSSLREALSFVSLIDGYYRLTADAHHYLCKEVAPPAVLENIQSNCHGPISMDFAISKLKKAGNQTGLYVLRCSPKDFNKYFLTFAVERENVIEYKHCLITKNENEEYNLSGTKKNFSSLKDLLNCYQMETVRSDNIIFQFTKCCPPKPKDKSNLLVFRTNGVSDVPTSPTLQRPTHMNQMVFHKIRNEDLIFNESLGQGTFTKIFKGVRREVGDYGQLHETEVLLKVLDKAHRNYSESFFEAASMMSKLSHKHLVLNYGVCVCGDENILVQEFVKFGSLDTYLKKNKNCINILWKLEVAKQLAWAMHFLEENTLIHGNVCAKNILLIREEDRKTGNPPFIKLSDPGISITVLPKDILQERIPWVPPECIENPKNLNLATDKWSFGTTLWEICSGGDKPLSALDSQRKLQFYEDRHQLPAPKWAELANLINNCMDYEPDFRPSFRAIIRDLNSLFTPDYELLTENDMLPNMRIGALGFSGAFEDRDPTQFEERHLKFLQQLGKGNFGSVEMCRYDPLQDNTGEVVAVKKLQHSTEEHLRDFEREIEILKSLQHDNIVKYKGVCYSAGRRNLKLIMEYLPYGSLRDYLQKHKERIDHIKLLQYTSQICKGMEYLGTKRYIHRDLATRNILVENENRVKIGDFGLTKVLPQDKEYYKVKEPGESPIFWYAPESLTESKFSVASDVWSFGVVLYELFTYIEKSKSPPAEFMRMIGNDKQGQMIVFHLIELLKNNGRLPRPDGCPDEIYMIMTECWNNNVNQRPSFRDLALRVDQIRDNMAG
Experiment: JAK2 LANCE Ultra kinase assay
Assay type: biochemical
Settings: 12 uM ATP
measurement-name: IC50
State the result as a value with its unit after it.

Examples with answers:
molecule	IC50
CN(c1c(C#N)cnc2[nH]ccc12)[C@H]1C[C@@H](NS(=O)(=O)CCC(F)(F)F)C1 [Compound H15]	16.6 nM
CN(c1c(C#N)cnc2[nH]ccc12)[C@@H]1CC[C@H](CS(=O)(=O)N2CCC(CO)C2)C1 (some centres unmarked) [Compound H71]	9.8 nM
CC[C@@H]1CC(NC(=O)Nc2nc(OC)ns2)C[C@@H]1Nc1c(C#N)cnc2[nH]ccc12 (some centres unmarked) [Compound H61]	126 nM
CN(c1c(C#N)cnc2[nH]ccc12)[C@H]1CC[C@H](CS(=O)(=O)N2CCC(CO)C2)CC1 (some centres unmarked) [Compound H69]	7.3 nM
COCCOc1nsc(NC(=O)N2C[C@H]3C[C@H](Nc4c(C#N)cnc5[nH]ccc45)C[C@H]3C2)n1 [Compound H52]	7.95 nM
COc1nsc(NC(=O)N[C@H]2C[C@@H](N(C)c3c(C#N)cnc4[nH]ccc34)C2)n1 [Compound H29]	6.8 nM
CN(c1c(C#N)cnc2[nH]ccc12)[C@H]1C[C@@H]2CN(C(=O)NCC(F)(F)F)C[C@@H]2C1 [Compound H22]	5.8 nM
CN(c1c(C#N)cnc2[nH]ccc12)C1CC(NS(=O)(=O)c2ccc(C(F)(F)F)cc2)C1 (centres unmarked) [Compound H16]	132 nM
N#Cc1cnc2[nH]ccc2c1N[C@H]1C[C@@H]2CN(C(=O)Nc3nc(C4CC4)ns3)C[C@@H]2C1 [Compound H49]	15 nM
COCCOC1CCCN(S(=O)(=O)C[C@H]2CC[C@@H](N(C)c3c(C#N)cnc4[nH]ccc34)C2)C1 (some centres unmarked) [Compound H70]	13.9 nM

// recorded IC50 for COc1noc(NC(=O)N2C[C@H]3C[C@H](N(C)c4c(C#N)cnc5[nH]ccc45)C[C@H]3C2)n1 [Compound H43] : 20 nM

Notebook: CC[C@@H]1CC(NC(=O)CCC(F)(F)F)C[C@@H]1Nc1c(C#N)cnc2[nH]ccc12 (stereo in doubt) [Compound H59] , IC50 read as 11.6 nM

For CC[C@@H]1CN(C(=O)Nc2nc(OC)ns2)C[C@@H]1Nc1c(C#N)cnc2[nH]ccc12 [Compound H80] the molecule record lists IC50 as 18.6 nM

The measured IC50 associated with CC[C@@H]1CC(NS(=O)(=O)c2cccc(C(F)(F)F)c2)C[C@@H]1Nc1c(C#N)cnc2[nH]ccc12 (some centres unmarked) [Compound H60] reads 35 nM

Origin of values: patent US12398141B2
